- Species: Sus scrofa
- PROCEDURE DETAILS: Ratio of IC50 for Inhibition of N-terminal Flag-GFP-TEV site-Met48 recombinant pig gastric H(+)/K(+) ATPase alpha V331F mutant/beta subunit to IC50 for Inhibition of N-terminal Flag-GFP-TEV site-Met48 recombinant pig gastric H(+)/K(+) ATPase alpha/beta subunit
VALUE TYPE: Ratio IC50

Recorded results for 2 compounds are shown here.
>>> assay_value("COCCO[C@@H]1c2ccn3c(C)c(C)nc3c2N[C@H](c2ccccc2)[C@H]1O [SORAPRAZAN]")
3.7
>>> assay_value("Cc1nc(Nc2ccc(F)cc2)nc(N2CCc3ccccc3C2C)c1C (centres undefined) [REVAPRAZAN]")
4.8

(P) Cc1nc2c(OCc3ccccc3)cccn2c1CC#N
(Q) Cc1nc2cc(C(=O)N(C)C)cc(O[C@H]3CCOc4cc(F)cc(F)c43)c2[nH]1 [TEGOPRAZAN]
Exercise: Dear colleague, could you let me know whether P or Q has the lower recorded Ratio IC50? Thanks. Answer by quoting the chosen item's label.
Key: P
(P: 1.5, Q: 17)

###

- Organism: Sus scrofa
- PROCEDURE DETAILS: Ratio of IC50 for Inhibition of N-terminal Flag-GFP-TEV site-Met48 recombinant pig gastric H(+)/K(+) ATPase alpha I816F mutant/beta subunit to IC50 for Inhibition of N-terminal Flag-GFP-TEV site-Met48 recombinant pig gastric H(+)/K(+) ATPase alpha/beta subunit
VALUE TYPE: Ratio IC50

Recorded results for 2 molecules are shown here.
>>> assay_value("Cc1nc2cc(C(=O)N(C)C)cc(O[C@H]3CCOc4cc(F)cc(F)c43)c2[nH]1 [TEGOPRAZAN]")
3.2
>>> assay_value("COCCO[C@@H]1c2ccn3c(C)c(C)nc3c2N[C@H](c2ccccc2)[C@H]1O [SORAPRAZAN]")
4

(1) Cc1nc2c(OCc3ccccc3)cccn2c1CC#N
(2) Cc1nc(Nc2ccc(F)cc2)nc(N2CCc3ccccc3C2C)c1C (centres undefined) [REVAPRAZAN]
Exercise: Sorting by Ratio IC50 in descending order, would 1 or 2 appear first? Answer by quoting the chosen item's label.
Key: 2

###

- Species on record: Sus scrofa
- PROCEDURE DETAILS: Ratio of IC50 for Inhibition of N-terminal Flag-GFP-TEV site-Met48 recombinant pig gastric H(+)/K(+) ATPase alpha Y799A mutant/beta subunit to IC50 for Inhibition of N-terminal Flag-GFP-TEV site-Met48 recombinant pig gastric H(+)/K(+) ATPase alpha/beta subunit
VALUE TYPE: Ratio IC50

(a) Cc1nc(Nc2ccc(F)cc2)nc(N2CCc3ccccc3C2C)c1C (centres undefined) [REVAPRAZAN]
(b) Cc1nc2c(OCc3ccccc3)cccn2c1CC#N
(c) Cc1nc2cc(C(=O)N(C)C)cc(O[C@H]3CCOc4cc(F)cc(F)c43)c2[nH]1 [TEGOPRAZAN]
Exercise: # descending Ratio IC50 order for the listed molecules API: response body holds the labels in the requested order.
Key: c, b, a
(c: 67, b: 38, a: 2)

###

- PROCEDURE DETAILS: Inhibition of N-terminal Flag-GFP-TEV site-Met48 recombinant pig gastric H(+)/K(+) ATPase alpha/beta subunit in HEK293 cells by colorimetric microplate reader
- Type: cell-based, Sus scrofa
pIC50: −log10 of the molar value.
VALUE TYPE: pIC50

>>> assay_value("Cc1nc2cc(C(=O)N(C)C)cc(O[C@H]3CCOc4cc(F)cc(F)c43)c2[nH]1")
5.64
>>> assay_value("COCCO[C@@H]1c2ccn3c(C)c(C)nc3c2N[C@H](c2ccccc2)[C@H]1O")
6.52

(a) Cc1nc(Nc2ccc(F)cc2)nc(N2CCc3ccccc3C2C)c1C (stereo not given)
(b) CNCc1cc(-c2ccccc2F)n(S(=O)(=O)c2cccnc2)c1
Exercise: Dear colleague, could you let me know whether a or b has the lower recorded pIC50? Thanks. Answer by quoting the chosen item's label.
Key: a
(a: 5.64, b: 8.82)
